Kindly find below pKi information for Alpha-2B adrenergic receptor (Rattus norvegicus) taken from the literature.
pKi: −log10 of the molar value.
result.type: pKi

compound | assayed.target | qualifier.operator | experimental.value
CCOc1ccccc1OCCN[C@H](C)Cc1ccc(OC)c(S(N)(=O)=O)c1 | Alpha-2B adrenergic receptor (Rattus norvegicus) | = | 7.10
COc1ccc2c(c1)CCC1(CNC=N1)C2 (stereo not drawn) | Alpha-2B adrenergic receptor (Rattus norvegicus) | = | 5.92
COc1ccc2c(c1)CC1(CC2)CNC=N1 (stereo not drawn) | Alpha-2B adrenergic receptor (Rattus norvegicus) | = | 6.71
CC(C)C1C2CCC(C2)C1N (stereo not drawn) | Alpha-2B adrenergic receptor (Rattus norvegicus) | < | 4.70
COc1cccc2c1CC1(CC2)CNC=N1 (stereo not drawn) | Alpha-2B adrenergic receptor (Rattus norvegicus) | = | 7.00
Cc1c(Nc2ncc[nH]2)ccc2c1NCCO2 | Alpha-2B adrenergic receptor (Rattus norvegicus) | = | 6.38
Fc1cccc2c1CC1(CC2)CN=CN1 (stereo not drawn) | Alpha-2B adrenergic receptor (Rattus norvegicus) | = | 6.82
Brc1ccccc1Nc1ncc[nH]1 | Alpha-2B adrenergic receptor (Rattus norvegicus) | = | 5.82
NC1=NC2(CCc3cccc(Cl)c3C2)CO1 (stereo not drawn) | Alpha-2B adrenergic receptor (Rattus norvegicus) | = | 7.70
COc1ccccc1N1CCN(CCn2c(=O)[nH]c3scc(-c4ccccc4)c3c2=O)CC1 | Alpha-2B adrenergic receptor (Rattus norvegicus) | = | 7.15
C1=NCC2(CCc3ccccc3C2)N1 (stereo not drawn) | Alpha-2B adrenergic receptor (Rattus norvegicus) | = | 6.56
Cc1ccc2c(c1)CC1(CC2)CN=CN1 (stereo not drawn) | Alpha-2B adrenergic receptor (Rattus norvegicus) | = | 7.30
COc1cccc2c1CC[C@H]1CN(CCn3c(=O)[nH]c4c(sc5cccnc54)c3=O)C[C@@H]21 | Alpha-2B adrenergic receptor (Rattus norvegicus) | = | 7.88
